Kindly supply the reported residual activity values for the records listed here.
- Assay system: Mitogen-activated protein kinase 12 (Homo sapiens)
- Setup conditions: at 10 µM
Give bare numbers, in %.

Example compounds with recorded residual activity:
Smiles str: O=C(Nc1cccc(Nc2cc(Nc3cccc(C(F)(F)F)c3)ncn2)c1)C1CC1
Value measured: 92
//
Smiles str: COc1cccc(-c2cc(=O)c3ccccc3o2)c1N
Value measured: 96
//
Smiles str: COc1cc2ncnc(Nc3cccc(Cl)c3)c2cc1OC
Value measured: 103

For every record below, what is its residual activity?
1. CN(C)CCCn1cc(C2=C(c3c[nH]c4ccccc34)C(=O)NC2=O)c2ccccc21
2. CC(C)(C)c1cc(C=C(C#N)C#N)cc(Br)c1O
3. COc1ccc(C(=O)Nc2sc3c(c2C(N)=O)CCCC3)cc1OC
4. C[C@@H](N)[C@H]1CC[C@H](C(=O)Nc2ccncc2)CC1
5. NCCNc1ncc(C(N)=O)c(Nc2cccc(C(F)(F)F)c2)n1
6. CCCCc1c(-c2ccc(OC)cc2)[nH]c2nccnc12

[131, 110, 83, 111, 106, 112]
